Origin of values: ChEMBL document CHEMBL1132318

- Test: Displacement of [3H]vesamicol from Vesicular Acetylcholine Transporter (VAChT)
Parameter Measured: pKi
Numbers only, as −log10 of the molar value.

Indicate its recorded pKi; the molecule in question is O[C@@H]1CCN(Cc2cccc(I)c2)C[C@H]1N1CCC(c2ccccc2)CC1 (racemic)
9.89
